The values you see were collected from PubChem BioAssay (EPA / NIEHS).

# procedureDetails: BSK_BT_Bcell_Proliferation: Viability Assessment in the BioMAP Diversity Plus: BT Assay for B cell Proliferation (AID 2284227)
# settings: primary human B cells with PBMC
Activity calls are given as the source filed them. The calls were made as follows: active = hit-call score of the fitted dose curve at least 0.9, where 1 is the maximum; inactive = score below 0.9.
Possible outcomes: y for active, n for inactive

- compound: "CC(=O)C(Cl)C(=O)N(C)C (configuration not stated)"
  class: "y"
- compound: "O=S(=O)(c1ccc(Cl)cc1)c1ccc(Cl)cc1"
  class: "n"
- compound: "O=Cc1cccc(Oc2ccccc2)c1"
  class: "n"
- compound: "CCCCCCCCC(=O)NCc1ccc(O)c(OC)c1"
  class: "n"
- compound: "COP(=S)(OC)Oc1ccc(S(=O)(=O)N(C)C)cc1"
  class: "n"
- compound: "CCSC(C)CC1CC(=O)C(C(CC)=NOC/C=C/Cl)=C(O)C1 (configuration not stated)"
  class: "n"
- compound: "Nc1cccc2ccccc12"
  class: "y"

---

# System: frog Estrogen Receptor (ESR2), gene 100174814
# procedureDetails: ATG_frER2_XSP1: Attagene TRANS-FACTORIAL Multi-Species (XSP1) HepG2 Assay for frog Estrogen Receptor (ESR2) (AID 2283774)
Results filed as inconclusive are left out. Activity calls are given as the source filed them. Rule for the calls: active = hit-call score of the fitted dose curve at least 0.9, where 1 is the maximum; inconclusive = response in the unintended direction; inactive = score below 0.9.

- compound: "CC(C)(C)CC(C)(C)c1ccc(O)cc1"
  AC50: "2.75 µM (active)"
- compound: "CC12CC1(C)C(=O)N(c1cc(Cl)cc(Cl)c1)C2=O (centres undefined)"
  AC50: "24.7 µM (active)"
- compound: "CC(C)(C)c1cc(O)ccc1O"
  AC50: "22.4 µM (active)"
- compound: "CC1(C)CCC(Cc2ccc(Cl)cc2)C1(O)Cn1cncn1 (centres undefined)"
  AC50: "26.3 µM (active)"

---

# procedureDetails: BSK_3C_Vis: BioMAP Diversity Plus: 3C Assay for Morphology Visualization (AID 2283025);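 also: fitted both ways so gain or loss versus DMSO counts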
# settings: primary human endothelial cells (HUVEC)
Activity calls are given as the source filed them. How the source made its calls: active means hit-call score of the fitted dose curve at least 0.9, where 1 is the maximum; inactive means score below 0.9.
Possible outcomes: active, inactive

- compound: "O=C(OC1CCCCC1)c1ccccc1C(=O)OC1CCCCC1"
  class: "active"
- compound: "CC(C)(C)c1cc(O)ccc1O"
  class: "active"
- compound: "COP(=S)(OC)Oc1cc(Cl)c(Cl)cc1Cl"
  class: "inactive"
- compound: "CCCCCCCCc1ccc(O)cc1"
  class: "active"
- compound: "O=Cc1cccc(Oc2ccccc2)c1"
  class: "inactive"
- compound: "C(=NC1CCCCC1)=NC1CCCCC1"
  class: "active"
- compound: "CCCCCCCCC(=O)NCc1ccc(O)c(OC)c1"
  class: "inactive"

---

# targetDesc: human Caspase 5 (CASP5), CASP5 (gene 838)
# procedureDetails: NVS_ENZ_hCASP5: NovaScreen (NVS) Enzymatic Assay for human Caspase 5 (CASP5) (AID 2283137)
Results filed as inconclusive are left out. Active and inactive are the calls of the source. The calls were made as follows: active = hit-call score of the fitted dose curve at least 0.9, where 1 is the maximum; inconclusive = response in the unintended direction; inactive = score below 0.9.
Possible outcomes: true for active, false for inactive

- compound: "Nc1ncc([N+](=O)[O-])s1"
  class: "true"
- compound: "O=C1C2(Cl)C3(Cl)C4(Cl)C(Cl)(Cl)C5(Cl)C3(Cl)C1(Cl)C5(Cl)C24Cl (stereo unspecified)"
  class: "false"
- compound: "O=[N+]([O-])c1ccc2c3c(cccc13)CC2"
  class: "true"
- compound: "Nc1cccc2ccccc12"
  class: "true"
- compound: "O=C(O)C(F)(F)C(F)(F)C(F)(F)C(F)(F)C(F)(F)C(F)(F)C(F)(F)C(F)(F)C(F)(F)C(F)(F)F"
  class: "true"
- compound: "Cn1sc(Cl)cc1=O"
  class: "false"

---

# Read-out: Hypoxia-inducible factor 1-alpha (Homo sapiens)
# procedureDetails: LTEA_HepaRG_HIF1A: Life Technologies and Expression Analysis (LTEA) Assay for Hypoxia-inducible factor 1 (HIF1A) Trancription factor using HepaRG (AID 2283503);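 also: HIF1A transcript by TaqMan qRT-PCR normalized to ACTB GAPDH and POLR2A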
# settings: mRNA level, 48 h; actives raise or lower the signal
Activity calls are given as the source filed them. The calls were made as follows: active = hit-call score of the fitted dose curve at least 0.9, where 1 is the maximum; inactive = score below 0.9.
Possible outcomes: yes for active, no for inactive

- compound: "C[C@]12CCC(=O)C[C@@H]1CC[C@@H]1[C@@H]2CC[C@]2(C)[C@@H](O)CC[C@@H]12"
  class: "no"
- compound: "C=C(C)C(=O)[O][Sn]([CH2]CCC)([CH2]CCC)[CH2]CCC"
  class: "yes"
- compound: "CCN1CCC2(CC1)COc1cc3c(cc12)N(C(=O)c1ccc(-c2ccc(-c4nnc(C)o4)cc2C)cc1)CC3"
  class: "yes"
- compound: "C[C@@H]1C[C@@H]([C@H](O)CC2CC(=O)NC(=O)C2)C(=O)[C@@H](C)C1"
  class: "yes"
- compound: "Cn1sc(Cl)cc1=O"
  class: "no"
- compound: "Cc1ccccc1N"
  class: "no"
- compound: "O=C(O)C(F)(F)C(F)(F)C(F)(F)C(F)(F)C(F)(F)C(F)(F)F"
  class: "no"
- compound: "O=c1[nH]c(=O)[nH]c(=O)[nH]1"
  class: "no"
- compound: "CCCCCCCCc1ccc(O)cc1"
  class: "no"
- compound: "O=C(O)C(Cl)(Cl)Cl"
  class: "no"
- compound: "C=CC(=O)OCCCCCC(C)C"
  class: "no"
- compound: "COc1cc(-c2ccc(N)c(OC)c2)ccc1N"
  class: "no"

---

# targetDesc: human Dopamine Transporter (DAT), SLC6A3 (gene 6531)
# procedureDetails: NVS_TR_hDAT: NovaScreen (NVS) Transporter Assay for human Dopamine Transporter (DAT) (AID 2283374);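 also: activity means loss of bound radioligand signal relative to DMSO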
# Description: NVS_TR_hDAT is a biochemical, single-readout assay that uses extracted gene-proteins in a cell-free assay. Measurements were taken 1 hour after chemical dosing in a 96-well plate.NVS_TR_hDAT is one of one assay component(s) measured or calculated from the NVS_TR_hDAT assay. […] This assay endpoint, NVS_TR_hDAT, was analyzed in the positive analysis fitting direction relative to DMSO as the negative control and baseline of activity. […]
Inconclusive results are not listed. Calls of active or inactive are those of the source. The calls were made as follows: active = hit-call score of the fitted dose curve at least 0.9, where 1 is the maximum; inconclusive = response in the unintended direction; inactive = score below 0.9.

- compound: "C=C(C)C(=O)[O][Sn]([CH2]CCC)([CH2]CCC)[CH2]CCC"
  AC50: "2.82 µM (active)"
- compound: "CCN1CCC2(CC1)COc1cc3c(cc12)N(C(=O)c1ccc(-c2ccc(-c4nnc(C)o4)cc2C)cc1)CC3"
  AC50: "6.34 µM (active)"
- compound: "Oc1ccc(-c2ccccc2)cc1"
  AC50: "10.7 µM (active)"
- compound: "Nc1ccc(-c2ccc(N)c(Cl)c2)cc1Cl"
  AC50: "1.63 µM (active)"
- compound: "CC(=O)[O][Hg][c]1ccccc1"
  AC50: "12.4 µM (active)"
- compound: "O=Cc1cccc(Oc2ccccc2)c1"
  AC50: "5.52 µM (active)"
- compound: "CC(C)(C)CC(C)(C)c1ccc(O)cc1"
  AC50: "15.1 µM (active)"

---

# Read-out: Actin alpha 1 (ACTA1), ACTA1 (gene 58)
# procedureDetails: BSK_MyoF_ACTA1: BioMAP Diversity Plus: MyoF Assay for Actin alpha 1 (ACTA1) Biomarker Activity (AID 2284244)
# settings: primary human lung fibroblasts
Activity calls are given as the source filed them. Rule for the calls: active = hit-call score of the fitted dose curve at least 0.9, where 1 is the maximum; inactive = score below 0.9.
Possible outcomes: label 1 = active, label 0 = inactive

- compound: "Nc1cccc2ccccc12"
  class: "label 0"
- compound: "CC(C)CCCCCCOC(=O)c1ccccc1C(=O)OCCCCCCC(C)C"
  class: "label 0"
- compound: "COP(=S)(OC)Oc1cc(Cl)c(Cl)cc1Cl"
  class: "label 1"
- compound: "CCNc1nc(NC(C)(C)C)nc(SC)n1"
  class: "label 0"
- compound: "CCOC(=O)/C=C(C)/C=C/C[C@@H](C)CCCC(C)C"
  class: "label 1"
- compound: "O=C(O)C(F)(F)C(F)(F)C(F)(F)C(F)(F)C(F)(F)C(F)(F)F"
  class: "label 0"

---

# procedureDetails: ATG_M_32_CIS: Attagene CIS-FACTORIAL HepG2 Assay for M32 Transcription Factor (Internal Marker) (AID 2282949);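 also: background control marker of the multiplexed CIS panel rather than a real target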
# settings: HepG2 Attagene cis-factorial M32 reporter, mRNA; actives raise or lower the signal
Calls of active or inactive are those of the source. Rule for the calls: active = hit-call score of the fitted dose curve at least 0.9, where 1 is the maximum; inactive = score below 0.9.
outcomeMeasure: outcome

- compound: "COP(=S)(OC)Oc1cc(Cl)c(Cl)cc1Cl"
  reportedValue: "inactive"
- compound: "O=CC=O"
  reportedValue: "inactive"
- compound: "CC(C)C1CCC(Cc2ccc(Cl)cc2)C1(O)Cn1cncn1 (stereo unspecified)"
  reportedValue: "inactive"
- compound: "C[C@@H](Oc1ccc(Cl)cc1Cl)C(=O)O"
  reportedValue: "inactive"
- compound: "C=C(C)C#N"
  reportedValue: "inactive"
- compound: "ClC1=C(Cl)[C@]2(Cl)[C@H]3[C@H]([C@H]4C=C[C@H]3C4)[C@@]1(Cl)C2(Cl)Cl"
  reportedValue: "inactive"

---

# Read-out: Cyclin D1 (CCND1), CCND1 (gene 595)
# procedureDetails: LTEA_HepaRG_CCND1: Life Technologies and Expression Analysis (LTEA) Assay for Cyclin D1 (CCND1) using HepaRG (AID 2283451)
# settings: mRNA level, 48 h; actives raise or lower the signal
# Method: LTEA_HepaRG is a cell based, multiplexed-readout assay that uses HepaRG, a human liver cell line, with measurements taken at 48 hours after chemical dosing on a 96-well plate.LTEA_HepaRG_CCND1 is one of 102 assay component(s) measured in the LTEA HepaRG cell culture assay. It is a marker of Cell proliferation, survival, death.Data from the assay component LTEA_HepaRG_CCND1 was analyzed into 1 endpoint. […]
Active and inactive are the calls of the source. Rule for the calls: active = hit-call score of the fitted dose curve at least 0.9, where 1 is the maximum; inactive = score below 0.9.
Possible outcomes: T = active, F = inactive

- compound: "CC(=O)[O][Hg][c]1ccccc1"
  class: "T"
- compound: "ClCC(Cl)CCl"
  class: "F"
- compound: "O=C(O)C(Cl)(Cl)Cl"
  class: "F"
- compound: "C=C(C)C(=O)[O][Sn]([CH2]CCC)([CH2]CCC)[CH2]CCC"
  class: "F"
- compound: "CCC(=O)C(CC(C)N(C)C)(c1ccccc1)c1ccccc1 (centres undefined)"
  class: "F"
- compound: "Cc1ccccc1N"
  class: "F"
- compound: "CN(C)N=O"
  class: "F"
- compound: "C[C@]12CCC(=O)C[C@@H]1CC[C@@H]1[C@@H]2CC[C@]2(C)[C@@H](O)CC[C@@H]12"
  class: "F"
- compound: "C[C@@H]1C[C@@H]([C@H](O)CC2CC(=O)NC(=O)C2)C(=O)[C@@H](C)C1"
  class: "T"
- compound: "O=C(O)C(F)(F)C(F)(F)C(F)(F)C(F)(F)C(F)(F)C(F)(F)F"
  class: "F"
- compound: "ClC1(Cl)C2(Cl)C3(Cl)C4(Cl)C(Cl)(Cl)C5(Cl)C3(Cl)C1(Cl)C5(Cl)C24Cl (centres undefined)"
  class: "F"
- compound: "CCOP(=S)(OCC)SCSP(=S)(OCC)OCC"
  class: "F"
- compound: "CCOP(=S)(OCC)Oc1nc(Cl)c(Cl)cc1Cl"
  class: "F"
- compound: "CC(C)(C)c1cc(O)ccc1O"
  class: "F"
